# procedure details: OSM: Kinetic solubility pH 6.5 isotonic phosphate buffer.
# Format: ADME
Assign rule met whenever solubility kinetic does not fall below 3 µg/mL; assign rule not met whenever it does.

Some solved cases for reference:
Cc1cc(/C=C2\S/C(=N\c3ccccc3)NC2=O)c(C)n1-c1cc(C(F)(F)F)cc(C(F)(F)F)c1 rule met
Cc1cc(/C=C2\S/C(=N\c3ccccc3)NC2=O)c(C)n1-c1ccc(F)cc1 rule not met
Cc1cc(C(=O)OCC(N)=O)c(C)n1-c1ccc(F)cc1 rule met
Cc1cc(/C=C2\S/C(=N\c3ccccc3)N(C3CCCC3)C2=O)c(C)n1-c1ccc(C(F)(F)F)cc1 rule met
Cc1ccc(-n2c(C)cc(/C=C3\S/C(=N\c4ccccc4)NC3=O)c2C)cc1 rule not met

Note: attention shifts to another entry.
Prompt: In plain terms: is recorded solubility kinetic at least 3 µg/mL for Cc1cc(C(=O)OCC(=O)Nc2c(C)n(C)n(-c3ccccc3)c2=O)c(C)n1-c1ccc(F)cc1 ?
Completion: rule met
